Below is a list of entries, each paired with its recorded IC50 value.
- Tested on: MEL-28
- protocol notes: Inhibition of cell growth by counting cells, MEL-28
- Type: cell-based, human
- experimental parameters: Homo sapiens, SK-MEL-28, 72 h; three days of incubation; read-out: IC50 (molar) MEL-28
property name: IC50

>  <compound>
COc1cc2c(cc1OC(=O)C(F)(F)F)CCN[C@]21CS[C@@H]2c3c(OC(C)=O)c(C)c4c(c3[C@H](COC1=O)N1C2[C@H]2c3c(cc(C)c(OC)c3O)C[C@@H]([C@@H]1O)N2C)OCO4 (stereo partly shown) [Compound 104]

>  <result>
0.583 nM

$$$$
>  <compound>
COc1cc2c(cc1OC(=O)/C=C/c1ccccc1)CCN[C@]21CS[C@@H]2c3c(OC(C)=O)c(C)c4c(c3[C@H](COC1=O)N1C2[C@H]2c3c(cc(C)c(OC)c3O)C[C@@H]([C@@H]1O)N2C)OCO4 (stereo partly shown) [Compound 61]

>  <result>
0.112 nM

$$$$
>  <compound>
COc1cc2c(cc1OC(=O)OC(C)(C)C)CCN[C@]21CS[C@@H]2c3c(OC(C)=O)c(C)c4c(c3[C@H](COC1=O)N1C2[C@H]2c3c(cc(C)c(OC)c3O)C[C@@H]([C@@H]1C#N)N2C(=O)OC(C)(C)C)OCO4 (stereo partly shown) [Compound 190]

>  <result>
5.22 nM

$$$$
>  <compound>
COc1cc2c(cc1O)CCN[C@]21CS[C@@H]2c3c(OC(C)=O)c(C)c4c(c3[C@H](COC1=O)N1C2[C@H]2c3c(cc(C)c(OC)c3O)C[C@@H]([C@@H]1C#N)N2C(=O)OC(C)(C)C)OCO4 (stereo partly shown) [Compound 188]

>  <result>
0.583 nM

$$$$
